- System: Jar
- method-description: Confirmatory qHTS for gynecologic anti-cancer compounds from libraries of approved drugs and bioactive compounds; note: nearly all actives have a fitted effect of over 55% in size
- setup-conditions: gynecologic cancer cell panel viability, ATPlite luminescence, 48 h; series mostly up to 57.6 µM
Records with an inconclusive call do not appear. Active and inactive are the calls of the source. Calls come from the whole dose curve; as a rule, active = well fitted cell-killing curve with a large enough effect; inconclusive = small, poorly fitted or top-dose-only effect, or effect the other way; inactive = no such curve, though single readings can be large or run the other way.
Your response should consist of one outcome taken from active, inactive

Prompt: Returns: the outcome recorded for Cc1ccc(C(=O)N(CCCN)C(c2nc3cc(Cl)ccc3c(=O)n2Cc2ccccc2)C(C)C)cc1 (stereo not drawn) in this assay.
Completion: active

Prompt: Returns: the outcome recorded for Nc1ccc(C(=O)Nc2cccc(-c3nc(N4CCOCC4)c4oc5ncccc5c4n3)c2)cn1 in this assay.
Completion: active

Prompt: Returns: the outcome recorded for COc1cc(N2CCC(N3CCN(C)CC3)CC2)ccc1Nc1ncnc(Nc2ccccc2S(=O)(=O)C(C)C)n1 in this assay.
Completion: inactive

Prompt: Returns: the outcome recorded for CC(C)[C@@H](CS(=O)(=O)C(C)C)N1C(=O)[C@@](C)(CC(=O)O)C[C@H](c2cccc(Cl)c2)[C@H]1c1ccc(Cl)cc1 in this assay.
Completion: active

Prompt: Returns: the outcome recorded for CCCCc1oc2ccccc2c1C(=O)c1cc(I)c(OCCN(CC)CC)c(I)c1 in this assay.
Completion: active

Prompt: Returns: the outcome recorded for CNC(=O)c1ccccc1Sc1ccc2c(/C=C/c3ccccn3)n[nH]c2c1 in this assay.
Completion: active

Prompt: Returns: the outcome recorded for Cc1nc(N)ncc1-c1nc(N2CCOCC2)c2sc(C(C)(C)O)cc2n1 in this assay.
Completion: active

Prompt: Returns: the outcome recorded for CN1C(=O)C(Cc2c[nH]c3ccccc23)NC1=S (stereo not drawn) in this assay.
Completion: inactive

Prompt: Returns: the outcome recorded for COc1cc2c(cc1-c1c(C)noc1C)ncc1[nH]c(=O)n(C(C)c3ccccn3)c12 (stereo not drawn) in this assay.
Completion: active

Prompt: Returns: the outcome recorded for NS(=O)(=O)OC[C@@H]1C[C@@H](n2ccc3c(N[C@H]4CCc5ccccc54)ncnc32)C[C@@H]1O in this assay.
Completion: inactive

Prompt: Returns: the outcome recorded for CCCC(=O)O[C@]1(C(=O)CCl)[C@@H](C)C[C@H]2[C@@H]3CCC4=CC(=O)C=C[C@]4(C)[C@@]3(F)C(=O)C[C@@]21C in this assay.
Completion: active

Prompt: Returns: the outcome recorded for CCC1C(=O)N(C)c2cnc(Nc3ccc(C(=O)NC4CCN(C)CC4)cc3OC)nc2N1C1CCCC1 (stereo not drawn) in this assay.
Completion: active

Source listed as PubChem BioAssay AID1345085.
